tested on: RPMI-8226 leukemia; assay: NCI tumour cell line growth inhibition, 48 h; in the data active means GI50 below about 0.43 µM; inactive means the rest
Classes to choose from: label 1 for active, label 0 for inactive

Req: # outcome recorded in this test, key = `N#CC(C#N)=C/C=C(\Cl)c1ccc(Cl)cc1`
Resp: label 0

Req: Could you do the same for `Cc1c2cnccc2c(C)c2c1c1cc(C#N)ccc1n2C` , please?
Resp: label 1

Req: Could you do the same for `CO/N=C(\COc1ccc2c(c1)[nH]c1ccccc12)c1ccc(OC)cc1` , please?
Resp: label 0

Req: Could you do the same for `O=C(c1ccc2ccccc2c1)c1c(C(F)(F)F)n([O-])c2ccc(C(F)(F)F)cc2[n+]1=O` , please?
Resp: label 0

Req: Could you do the same for O=S(=O)(/N=c1\scc(-c2ccccc2)n1-c1ccccc1)c1ccc(N2N=C3c4ccccc4CC3C2c2ccc(Cl)cc2)cc1 (configuration not stated) , please?
Resp: label 0

Req: Could you do the same for `Clc1ccc(-c2cn3ccnc3c(-c3ccc(Cl)cc3)n2)cc1` , please?
Resp: label 0

Req: Could you do the same for `O=C(O)c1nc(NCc2nc3cc(Cl)ccc3o2)n[nH]1` , please?
Resp: label 0
